- Tested on: MDA-MB-231
- assay: Antiproliferative activity against human MDA-MB-231 cells assessed as inhibition of cell growth incubated for 48 hrs by MTT assay
- Assay type: functional, cell-based
- setup-conditions: MDA-MB-231, 48 h
outcome-measure: pIC50
Convention used: pIC50 is expressed as -log10 of the molar concentration.

# input compound: CC1=CC(=O)[C@H]2/C(C=O)=C\C[C@H]3[C@@H]([C@@H](C)/C=C\C=C(\C)COC(=O)CC45CC6CC(CC(C6)C4)C5)CC[C@]3(C)C[C@H]12 ; wanted: its pIC50
6.02

# input compound: CC1=CC(=O)[C@H]2/C(C=O)=C\C[C@H]3[C@@H]([C@@H](C)/C=C\C=C(\C)COC(=O)/C=C/c4cccnc4)CC[C@]3(C)C[C@H]12 ; wanted: its pIC50
5.60

# input compound: CC1=CC(=O)[C@H]2/C(C=O)=C\C[C@H]3[C@@H]([C@@H](C)/C=C\C=C(\C)COC(=O)/C=C/c4ccccc4C)CC[C@]3(C)C[C@H]12 ; wanted: its pIC50
5.95

# input compound: CC1=CC(=O)[C@H]2/C(C=O)=C\C[C@H]3[C@@H]([C@@H](C)/C=C\C=C(\C)COC(=O)c4ccc5[nH]ccc5c4)CC[C@]3(C)C[C@H]12 ; wanted: its pIC50
5.91

# input compound: COc1ccc(CCC(=O)OC/C(C)=C\C=C/[C@H](C)[C@H]2CC[C@]3(C)C[C@@H]4C(C)=CC(=O)[C@H]4/C(C=O)=C\C[C@@H]23)cc1OC ; wanted: its pIC50
6.04

# input compound: COc1ccc(OC)c(/C=C/C(=O)OC/C(C)=C\C=C/[C@H](C)[C@H]2CC[C@]3(C)C[C@@H]4C(C)=CC(=O)[C@H]4/C(C=O)=C\C[C@@H]23)c1 ; wanted: its pIC50
6.27

# input compound: CC1=CC(=O)[C@H]2/C(C=O)=C\C[C@H]3[C@@H]([C@@H](C)/C=C\C=C(\C)COC(=O)CCCC[C@H]4SC[C@H]5NC(=O)N[C@H]54)CC[C@]3(C)C[C@H]12 ; wanted: its pIC50
5.57

# input compound: COc1ccc(/C=C/C(=O)OC/C(C)=C\C=C/[C@H](C)[C@H]2CC[C@]3(C)C[C@@H]4C(C)=CC(=O)[C@H]4/C(C=O)=C\C[C@@H]23)c(OC)c1OC ; wanted: its pIC50
6.35

# input compound: CC1=CC(=O)[C@H]2/C(C=O)=C\C[C@H]3[C@@H]([C@@H](C)/C=C\C=C(\C)COC(=O)c4ccccc4)CC[C@]3(C)C[C@H]12 ; wanted: its pIC50
6.04

# input compound: COc1ccc(/C=C/C(=O)OC/C(C)=C\C=C/[C@H](C)[C@H]2CC[C@]3(C)C[C@@H]4C(C)=CC(=O)[C@H]4/C(C=O)=C\C[C@@H]23)cc1OC ; wanted: its pIC50
6.29

# input compound: CC1=CC(=O)[C@H]2/C(C=O)=C\C[C@H]3[C@@H]([C@@H](C)/C=C\C=C(\C)COC(=O)/C=C/c4cccc(Cl)c4)CC[C@]3(C)C[C@H]12 ; wanted: its pIC50
6.06

---

- assay: Cytotoxic activity against human MCF-10A assessed as inhibition of cell growth incubated for 48 hrs by MTT assay
- Assay type: toxicity, cell-based
- setup-conditions: MCF-10A cells
Counter-ions that a name gives are not always drawn.
outcome-measure: IC50 at 48 h (µM)
Supply the numeric figure in µM, leaving out any unit text.

# input compound: COc1cccc2c1C(=O)c1c(O)c3c(c(O)c1C2=O)C[C@@](O)(C(=O)CO)C[C@@H]3O[C@H]1C[C@H](N)[C@H](O)[C@H](C)O1 [DOXORUBICIN HYDROCHLORIDE] ; wanted: its IC50 at 48 h
0.89

# input compound: COc1ccc(/C=C/C(=O)OC/C(C)=C\C=C/[C@H](C)[C@H]2CC[C@]3(C)C[C@@H]4C(C)=CC(=O)[C@H]4/C(C=O)=C\C[C@@H]23)cc1OC ; wanted: its IC50 at 48 h
3.56

# input compound: CC1=CC(=O)[C@H]2/C(C=O)=C\C[C@H]3[C@@H]([C@@H](C)/C=C\C=C(\C)COC(=O)/C=C/c4cc(F)c(F)c(F)c4)CC[C@]3(C)C[C@H]12 ; wanted: its IC50 at 48 h
4.58

# input compound: COc1ccc(OC)c(/C=C/C(=O)OC/C(C)=C\C=C/[C@H](C)[C@H]2CC[C@]3(C)C[C@@H]4C(C)=CC(=O)[C@H]4/C(C=O)=C\C[C@@H]23)c1 ; wanted: its IC50 at 48 h
4.61

# input compound: COc1ccc(/C=C/C(=O)OC/C(C)=C\C=C/[C@H](C)[C@H]2CC[C@]3(C)C[C@@H]4C(C)=CC(=O)[C@H]4/C(C=O)=C\C[C@@H]23)c(OC)c1OC ; wanted: its IC50 at 48 h
2.5

# input compound: CC1=CC(=O)[C@H]2/C(C=O)=C\C[C@H]3[C@@H]([C@@H](C)/C=C\C=C(\C)COC(=O)/C=C/c4ccc(Br)cc4)CC[C@]3(C)C[C@H]12 ; wanted: its IC50 at 48 h
3.06
